Where do these numbers come from? They come from patent US10800791B2.

- targetOrSystem: human (hACC2) (Homo sapiens, UniProt O00763)
- Sequence (O00763 whole entry): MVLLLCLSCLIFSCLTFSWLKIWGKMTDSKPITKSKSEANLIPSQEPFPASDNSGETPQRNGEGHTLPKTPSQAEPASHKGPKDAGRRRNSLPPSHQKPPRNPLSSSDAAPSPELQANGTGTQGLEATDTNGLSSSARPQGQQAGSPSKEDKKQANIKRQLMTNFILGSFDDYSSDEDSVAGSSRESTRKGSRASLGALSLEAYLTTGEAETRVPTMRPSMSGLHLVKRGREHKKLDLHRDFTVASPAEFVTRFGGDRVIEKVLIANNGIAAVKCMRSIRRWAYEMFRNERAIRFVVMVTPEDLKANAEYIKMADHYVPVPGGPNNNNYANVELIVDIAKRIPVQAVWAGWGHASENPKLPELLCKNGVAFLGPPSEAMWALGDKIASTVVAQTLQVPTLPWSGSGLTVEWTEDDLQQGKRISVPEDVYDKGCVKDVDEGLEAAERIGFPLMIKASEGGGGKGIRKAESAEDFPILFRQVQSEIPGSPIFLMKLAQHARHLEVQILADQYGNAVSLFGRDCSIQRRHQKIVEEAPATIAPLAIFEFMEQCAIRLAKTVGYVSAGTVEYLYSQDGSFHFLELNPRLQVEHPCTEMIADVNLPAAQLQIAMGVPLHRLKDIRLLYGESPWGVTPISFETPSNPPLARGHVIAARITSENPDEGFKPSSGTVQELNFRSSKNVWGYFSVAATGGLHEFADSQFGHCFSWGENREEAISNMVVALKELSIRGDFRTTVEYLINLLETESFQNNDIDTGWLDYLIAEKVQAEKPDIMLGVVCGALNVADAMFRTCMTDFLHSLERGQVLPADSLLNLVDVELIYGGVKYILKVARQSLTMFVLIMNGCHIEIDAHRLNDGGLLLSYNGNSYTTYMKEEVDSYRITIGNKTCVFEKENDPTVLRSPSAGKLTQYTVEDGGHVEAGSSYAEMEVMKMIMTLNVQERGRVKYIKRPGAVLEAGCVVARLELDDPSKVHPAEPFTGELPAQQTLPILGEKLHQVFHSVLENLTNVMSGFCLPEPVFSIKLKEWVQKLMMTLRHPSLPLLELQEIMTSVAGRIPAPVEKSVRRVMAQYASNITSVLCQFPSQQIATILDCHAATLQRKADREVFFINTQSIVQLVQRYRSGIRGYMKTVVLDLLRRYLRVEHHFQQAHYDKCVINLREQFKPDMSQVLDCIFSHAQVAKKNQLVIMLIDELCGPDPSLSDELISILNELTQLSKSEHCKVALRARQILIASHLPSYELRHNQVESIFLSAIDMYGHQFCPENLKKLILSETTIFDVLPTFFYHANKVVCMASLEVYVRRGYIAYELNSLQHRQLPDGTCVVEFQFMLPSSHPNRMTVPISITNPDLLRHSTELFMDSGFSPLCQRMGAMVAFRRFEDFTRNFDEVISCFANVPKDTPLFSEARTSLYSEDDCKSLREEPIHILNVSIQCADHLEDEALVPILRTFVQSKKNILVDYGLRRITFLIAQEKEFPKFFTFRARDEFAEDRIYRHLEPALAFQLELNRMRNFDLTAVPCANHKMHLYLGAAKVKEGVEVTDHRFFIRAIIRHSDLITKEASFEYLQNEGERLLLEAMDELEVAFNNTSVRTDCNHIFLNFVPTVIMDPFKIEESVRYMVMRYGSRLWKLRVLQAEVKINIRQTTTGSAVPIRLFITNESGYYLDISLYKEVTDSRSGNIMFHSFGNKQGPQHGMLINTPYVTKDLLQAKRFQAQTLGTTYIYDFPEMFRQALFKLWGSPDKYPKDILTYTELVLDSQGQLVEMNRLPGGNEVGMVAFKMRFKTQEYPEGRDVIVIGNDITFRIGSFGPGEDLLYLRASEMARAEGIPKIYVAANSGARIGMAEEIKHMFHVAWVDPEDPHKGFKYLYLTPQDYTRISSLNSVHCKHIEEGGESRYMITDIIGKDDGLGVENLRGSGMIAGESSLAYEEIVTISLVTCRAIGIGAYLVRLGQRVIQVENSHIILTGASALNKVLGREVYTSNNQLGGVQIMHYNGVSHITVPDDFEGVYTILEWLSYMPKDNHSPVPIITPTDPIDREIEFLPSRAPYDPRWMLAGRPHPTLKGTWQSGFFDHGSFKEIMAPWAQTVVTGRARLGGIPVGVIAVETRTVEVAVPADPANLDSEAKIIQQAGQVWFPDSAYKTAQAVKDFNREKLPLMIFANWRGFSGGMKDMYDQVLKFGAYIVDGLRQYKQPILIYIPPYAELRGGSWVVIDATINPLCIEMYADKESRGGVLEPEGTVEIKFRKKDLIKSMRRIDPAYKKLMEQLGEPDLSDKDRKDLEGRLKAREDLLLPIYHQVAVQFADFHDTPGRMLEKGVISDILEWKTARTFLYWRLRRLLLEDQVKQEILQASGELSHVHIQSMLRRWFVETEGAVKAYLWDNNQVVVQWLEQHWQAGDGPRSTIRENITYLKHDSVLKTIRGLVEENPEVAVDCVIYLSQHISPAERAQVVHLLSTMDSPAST
- experimentDescription: In vitro ACC inhibition assay (ADP-Glo), hACC2
- Format: biochemical
- conditionLabel: Table 2b, additional results, 5 nM ACC2, 20 μM ATP, 20 μM acetyl-CoA
Recorded IC50 values for a group of molecules are listed next.
property: IC50

inputsmiles=CCc1ccc(F)cc1[C@H](Cn1c(=O)n(C(C)(C)C(=O)NC(C)C)c(=O)c2c(C)c(-n3nccn3)sc21)OC[C@H](C)C#N targetorsystem="human (hACC2) (Homo sapiens, UniProt O00763)" property=IC50 experimentalvalue="> 40 nM"
inputsmiles=COc1ccccc1[C@H](Cn1c(=O)n(C(C)(C)C(=O)NC2CCC2)c(=O)c2c(C)c(-n3nccn3)sc21)OC1CCOCC1 targetorsystem="human (hACC2) (Homo sapiens, UniProt O00763)" property=IC50 experimentalvalue="5 to 10 nM"
inputsmiles=COc1ccc(F)cc1[C@H](Cn1c(=O)n(C(C)(C)C(=O)NC2CCCCC2)c(=O)c2c(C)c(-n3nccn3)sc21)OCC(C)=O targetorsystem="human (hACC2) (Homo sapiens, UniProt O00763)" property=IC50 experimentalvalue="1 to 5 nM"
